Source listed as patent US20020048271A1.

molecular target: wild-type p53 DBD (Homo sapiens, UniProt P04637); construct: Recombinant DBD (residues 94-312) from wild-tvpe and mutant p53 proteins; test: p53 DBD thermostabilization assay (ELISA for mAb1620 epitope); details: 0.5 ng of p53 DBD heated at 45° C. for 30 minutes; read-out: SC50: concentration of compound required to preserve 50% of the epitope for mAb 1620
Sequence (P04637 94-312): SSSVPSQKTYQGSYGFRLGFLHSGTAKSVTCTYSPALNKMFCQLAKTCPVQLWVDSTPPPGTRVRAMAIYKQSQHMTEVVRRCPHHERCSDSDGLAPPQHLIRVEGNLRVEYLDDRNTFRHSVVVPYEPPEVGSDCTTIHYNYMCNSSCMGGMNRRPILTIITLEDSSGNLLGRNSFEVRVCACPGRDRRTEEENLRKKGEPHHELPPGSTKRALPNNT
# Lookup of reported EC50 keyed by entry

c1ccc2c(NCCN3CCOCC3)c3cccnc3cc2c1 :: > 300 µM
CN(C)CCCN1c2ccccc2Sc2ccccc21 :: > 300 µM

Here is another compound to look at.
Query: What value of EC50 has been reported for the following compound? `C(=C\c1nc(N2CCOCC2)c2ccccc2n1)/c1ccccc1`
Response: > 300 µM
